- assayNotes: Microsomal stability assay, mouse liver microsomes
- measurementParameters: 60 min
attributeMeasured: Microsomal Stability (mouse) % rem. 60 min

>>> observedvalue("O=C(N[C@H]1CC[C@@H](Oc2nc(N3CCOCC3)cc3ncccc23)CC1)c1ccc(Cl)nc1")
"F (% remaining = 25-50%)"
>>> observedvalue("O=C(N[C@H]1CC[C@@H](Oc2nc(N3CCOCC3)cc3ncccc23)CC1)c1ccncn1")
"F (% remaining = 25-50%)"
>>> observedvalue("Cc1cnc(C(=O)N[C@H]2CC[C@@H](Oc3nc(N4CCOCC4)cc4ncccc34)CC2)nc1")
"F (% remaining = 25-50%)"

###

- assayNotes: Pharmacokinetic study in mice (IV, PO)
- Format: in vivo, mice (C57BL/6)
- measurementParameters: female, C57BL/6; Table D; Mouse Plasma; IV; 3 mg/kg
attributeMeasured: AUC(0-t)

>>> observedvalue("O=C(N[C@H]1CC[C@@H](Oc2nc(N3CCOCC3)cc3ncccc23)CC1)c1cc[nH]c1")
"1450 ng·h/mL"

###

- Tested on: pH2AX induction in HCT116 ATM−/− multicellular tumour spheroids
- assayNotes: Prodrug radiation sensitization in multicellular tumour spheroids (pH2AX induction following radiation)
- Type: cell-based
- measurementParameters: Homo sapiens, HCT-116, 20 Gy, 5% O2, outer layers, read-out: Prodrug 5% O2 Outer layers EC50
Reported values of EC50 for individual entries
attributeMeasured: EC50

>>> observedvalue("Cn1c(CN(c2cnc3cc(N4CCOCC4)nc(OC4CCC(n5ccnc5)CC4)c3c2)S(C)(=O)=O)cnc1[N+](=O)[O-] (stereo not drawn)")
"1 to 10 µM"
>>> observedvalue("Cn1c(CN(c2cnc3cc(N4CCOCC4)nc(OC4CCC(Nc5ncc(C#N)cn5)CC4)c3c2)S(C)(=O)=O)cnc1[N+](=O)[O-] (stereo not drawn)")
"1 to 10 µM"
>>> observedvalue("Cn1c(CN(c2cnc3cc(N4CCOCC4)nc(OC4CCC(Nc5ccn6nccc6n5)CC4)c3c2)S(C)(=O)=O)cnc1[N+](=O)[O-] (stereo not drawn)")
"1 to 10 µM"
>>> observedvalue("Cn1c(CN(c2cnc3cc(N4CCOCC4)nc(OC4CCC(Nc5ncc(C(F)(F)F)cn5)CC4)c3c2)S(C)(=O)=O)cnc1[N+](=O)[O-] (stereo not drawn)")
"1 to 10 µM"
>>> observedvalue("Cn1c(CN(c2cnc3cc(N4CCOCC4)nc(OC4CCC(Nc5ncccn5)CC4)c3c2)S(C)(=O)=O)cnc1[N+](=O)[O-] (stereo not drawn)")
"0.5 to 1 µM"
>>> observedvalue("CC(c1cnc([N+](=O)[O-])n1C)N(c1cnc2cc(N3CCOCC3)nc(OC3CCC(Nc4ccn5nccc5n4)CC3)c2c1)S(C)(=O)=O (stereo not drawn)")
"0.5 to 1 µM"

###

- experimentalSystem: DNA-PK phosphorylation at Serine 2056 (Homo sapiens, UniProt P78527)
- Construct: host or cells: FaDu
- assayNotes: Cellular Assay for Inhibition of DNA-PK Phosphorylation at Serine 2056 (FaDu cells, neocarzinostatin, sandwich ELISA)
- Format: cell-based
- measurementParameters: Table 1
Reported values of IC50 for individual entries
attributeMeasured: IC50

>>> observedvalue("O=C(N[C@H]1CC[C@@H](Oc2nc(N3CCOCC3)cc3ncccc23)CC1)c1ccc(F)cc1")
"< 100 nM"
>>> observedvalue("O=C(N[C@H]1CC[C@@H](Oc2nc(N3CCOCC3)cc3ncccc23)CC1)c1cncs1")
"100 to 1000 nM"
>>> observedvalue("COc1cnc(N[C@H]2CC[C@@H](Oc3nc(N4CCOCC4)cc4ncc(N)cc34)CC2)nc1")
"< 100 nM"
>>> observedvalue("CCCS(=O)(=O)Nc1cnc2cc(N3CCOCC3)nc(O[C@H]3CC[C@@H](Nc4ncccn4)CC3)c2c1")
"1000 to 10000 nM"
>>> observedvalue("O=C(N[C@H]1CC[C@@H](Oc2nc(N3CCOCC3)cc3ncccc23)CC1)c1ccccc1")
"< 100 nM"
>>> observedvalue("Cn1ccc2nc(N[C@H]3CC[C@@H](Oc4nc(N5CCOCC5)cc5ncccc45)CC3)ncc21")
"< 100 nM"
>>> observedvalue("O=C(N[C@H]1CC[C@@H](Oc2nc(N3CCOCC3)cc3ncccc23)CC1)c1ccc(Cl)nc1")
"100 to 1000 nM"
>>> observedvalue("CS(=O)(=O)Nc1cnc2cc(N3CCOCC3)nc(O[C@H]3CC[C@@H](n4ccnc4)CC3)c2c1")
"100 to 1000 nM"
>>> observedvalue("c1cnc(N[C@H]2CC[C@@H](Oc3nc(N4CCOCC4)cc4ncccc34)CC2)nc1 [Compound 20a]")
"100 to 1000 nM"
>>> observedvalue("NC(=O)c1cnc(N[C@H]2CC[C@@H](Oc3nc(N4CCOCC4)cc4ncccc34)CC2)nc1")
"< 100 nM"
>>> observedvalue("COc1ccnc(C(=O)N[C@H]2CC[C@@H](Oc3nc(N4CCOCC4)cc4ncccc34)CC2)n1")
"< 100 nM"
>>> observedvalue("CC(C)S(=O)(=O)Nc1cnc2cc(N3CCOCC3)nc(O[C@H]3CC[C@@H](Nc4ncccn4)CC3)c2c1")
"1000 to 10000 nM"
>>> observedvalue("O=C(N[C@H]1CC[C@@H](Oc2nc(N3CCOCC3)cc3ncccc23)CC1)c1ncc(Cl)cn1")
"100 to 1000 nM"
>>> observedvalue("O=C(N[C@H]1CC[C@@H](Oc2nc(N3CCOCC3)cc3ncccc23)CC1)c1ccncn1")
"100 to 1000 nM"
>>> observedvalue("O=C(N[C@H]1CC[C@@H](Oc2nc(N3CCOCC3)cc3ncccc23)CC1)c1ccco1")
"< 100 nM"
>>> observedvalue("CN(C)C(=O)c1cnc(N[C@H]2CC[C@@H](Oc3nc(N4CCOCC4)cc4ncccc34)CC2)nc1")
"< 100 nM"
>>> observedvalue("O=C(N[C@H]1CC[C@@H](Oc2nc(N3CCOCC3)cc3ncccc23)CC1)c1ccc[nH]1")
"< 100 nM"
>>> observedvalue("Nc1cnc2cc(N3CCOCC3)nc(O[C@H]3CC[C@@H](Nc4ncccn4)CC3)c2c1")
"< 100 nM"
>>> observedvalue("Fc1cn([C@H]2CC[C@@H](Oc3nc(N4CCOCC4)cc4ncccc34)CC2)cn1 [Compound 17a]")
"< 100 nM"
>>> observedvalue("FC(F)c1ccc2c(O[C@H]3CC[C@@H](Nc4ncccn4)CC3)nc(N3CCOCC3)cc2n1")
"100 to 1000 nM"
>>> observedvalue("Clc1nc(N[C@H]2CC[C@@H](Oc3nc(N4CCOCC4)cc4ncccc34)CC2)c2occc2n1 [Compound 80b]")
"100 to 1000 nM"
>>> observedvalue("O=C(N[C@H]1CC[C@@H](Oc2nc(N3CCOCC3)cc3ncccc23)CC1)c1cccnn1")
"100 to 1000 nM"
>>> observedvalue("O=C(N[C@H]1CC[C@@H](Oc2nc(N3CCOCC3)cc3ncc(Br)cc23)CC1)c1ncccn1")
"100 to 1000 nM"
>>> observedvalue("CN(c1ncccn1)[C@H]1CC[C@@H](Oc2nc(N3CCOCC3)cc3ncc(NS(C)(=O)=O)cc23)CC1")
"< 100 nM"
>>> observedvalue("COc1nccnc1N[C@H]1CC[C@@H](Oc2nc(N3CCOCC3)cc3ncccc23)CC1")
"100 to 1000 nM"
>>> observedvalue("Cc1nc(C(F)(F)F)cn1[C@H]1CC[C@@H](Oc2nc(N3CCOCC3)cc3ncccc23)CC1 [Compound 17i]")
"100 to 1000 nM"

###

- assayNotes: Pharmacokinetic study in rats (IV, PO)
- Format: in vivo, Sprague-Dawley rats
- measurementParameters: male, Sprague-Dawley; Table B; Rat Plasma; PO; 30 mg/kg
attributeMeasured: AUC(0-t) (ng·h/mL)

>>> observedvalue("O=C(N[C@H]1CC[C@@H](Oc2nc(N3CCOCC3)cc3ncccc23)CC1)c1ncccn1")
8200

###

Reported values of pEC50 for individual entries
- experimentalSystem: pDNA-PK ser2056 induction in HCT116 spheroids (Homo sapiens)
- Construct: endogenous in cells; host or cells: HCT116 multicellular tumour spheroids
- assayNotes: Multicellular tumour spheroid + radiation, pDNA-PK inhibition, HCT116
- Assay type: cell-based
- measurementParameters: Example 7; spheroid, cell line HCT115 [sic]; 20 Gy; 20% O2; read-out: EC50 (pDNA-PK inhibition, immunohistochemical endpoint)
pEC50: −log10 of the molar value.
attributeMeasured: pEC50

>>> observedvalue("c1cncc(N[C@H]2CC[C@@H](Oc3nc(N4CCOCC4)cc4ncccc34)CC2)c1")
"5.00 to 6.00"
>>> observedvalue("COc1cnc(N[C@H]2CC[C@@H](Oc3nc(N4CCOCC4)cc4ncc(NS(C)(=O)=O)cc34)CC2)nc1")
"6.30 to 8.00"
>>> observedvalue("COc1cnc(N[C@H]2CC[C@@H](Oc3nc(N4CCOCC4)cc4ncc(O)cc34)CC2)nc1 [Compound 19c]")
"5.00 to 6.00"
>>> observedvalue("Cc1cc2ncnn2cc1N[C@H]1CC[C@@H](Oc2nc(N3CCOCC3)cc3ncccc23)CC1")
"4.00 to 5.00"
>>> observedvalue("Oc1cnc(N[C@H]2CC[C@@H](Oc3nc(N4CCOCC4)cc4ncccc34)CC2)nc1")
"6.00 to 6.30"
>>> observedvalue("c1cnc2cc(N3CCOCC3)nc(O[C@H]3CC[C@@H](Nc4ccc5ncnn5c4)CC3)c2c1")
"5.00 to 6.00"
>>> observedvalue("Nc1cnc2cc(N3CCOCC3)nc(O[C@H]3CC[C@@H](n4ccnc4)CC3)c2c1")
"5.00 to 6.00"
>>> observedvalue("CCCC(=O)N[C@H]1CC[C@@H](Oc2nc(N3CCOCC3)cc3ncccc23)CC1")
"4.00 to 5.00"
>>> observedvalue("O=C(N[C@H]1CC[C@@H](Oc2nc(N3CCOCC3)cc3ncccc23)CC1)c1ccncn1")
"5.00 to 6.00"
>>> observedvalue("Cc1nccnc1N[C@H]1CC[C@@H](Oc2nc(N3CCOCC3)cc3ncccc23)CC1")
"5.00 to 6.00"
>>> observedvalue("O=C(N[C@H]1CC[C@@H](Oc2nc(N3CCOCC3)cc3ncccc23)CC1)c1scnc1Cl")
"4.00 to 5.00"
>>> observedvalue("c1cnnc(N[C@H]2CC[C@@H](Oc3nc(N4CCOCC4)cc4ncccc34)CC2)c1")
"6.00 to 6.30"
>>> observedvalue("COc1nccnc1N[C@H]1CC[C@@H](Oc2nc(N3CCOCC3)cc3ncccc23)CC1")
"5.00 to 6.00"
>>> observedvalue("FC(F)(F)c1cn([C@H]2CC[C@@H](Oc3nc(N4CCOCC4)cc4ncccc34)CC2)cn1 [Compound 17k]")
"5.00 to 6.00"
>>> observedvalue("O=C(N[C@H]1CC[C@@H](Oc2nc(N3CCOCC3)cc3ncccc23)CC1)c1ncccn1")
"6.00 to 6.30"
>>> observedvalue("Cc1cnn([C@H]2CC[C@@H](Oc3nc(N4CCOCC4)cc4ncccc34)CC2)c1C(F)(F)F [Compound 17f]")
"4.00 to 5.00"
